Each recorded value in this set is attributed to ChEMBL document CHEMBL3885861.

species on record: Rattus norvegicus; assay: Open TG-GATES - Regimen: Single; type: toxicity, organism-based, Sprague-Dawley; design: regimen Single, gender Male, age 6 weeks; details: in vivo, po, 0 mg/kg, 24 h, route gavage, dose level Control
experimental readout: TERMINAL_BW (g)
Quick note: give the figure in g, leave out the unit.

Prompt: Item COc1ccc(Cl)cc1C(=O)NCCc1ccc(S(=O)(=O)NC(=O)NC2CCCCC2)cc1 [GLYBURIDE] has what recorded TERMINAL_BW?
Response: 226.7

Prompt: So what does the record say about TERMINAL_BW for Cn1cnc([N+](=O)[O-])c1Sc1ncnc2nc[nH]c12 ?
Response: 202.7

Prompt: I would be grateful if you could share the reported TERMINAL_BW for COc1ccc(O)c(C(C)(C)C)c1.COc1ccc(O)cc1C(C)(C)C [BUTYLATED HYDROXYANISOLE] .
Response: 217.3

Prompt: Look up TERMINAL_BW: O=C1CN(/N=C/c2ccc(-c3ccc([N+](=O)[O-])cc3)o2)C(O)=N1
Response: 212.6

Prompt: Reported TERMINAL_BW, compound CNCCC(Oc1ccc(C(F)(F)F)cc1)c1ccccc1.Cl (stereo not given) [FLUOXETINE HYDROCHLORIDE] : ____
Response: 234.5

###

organism: Rattus norvegicus; experiment: Open TG-GATES - Regimen: Daily Repeat; format: toxicity, organism-based, Sprague-Dawley; parameters: regimen Daily Repeat, gender Male, age 6 weeks; settings: in vivo, po, 0 mg/kg, […], tissue Blood, route gavage, dose level Control, time 14 day
Would you kindly list Hb for each of these molecules?
Answer format: numeric, g/dL implied, no suffix.

Prompt: # lookup: Hb of COc1ccc(Cl)cc1C(=O)NCCc1ccc(S(=O)(=O)NC(=O)NC2CCCCC2)cc1 [GLYBURIDE]
Response: 14.1

Prompt: Given Cn1cnc([N+](=O)[O-])c1Sc1ncnc2nc[nH]c12 [AZATHIOPRINE] , state its recorded Hb.
Response: 14.9

Prompt: Consider the molecule shown here: COc1ccc(O)c(C(C)(C)C)c1.COc1ccc(O)cc1C(C)(C)C [BUTYLATED HYDROXYANISOLE] What is its recorded Hb?
Response: 13.9

Prompt: Recorded Hb for O=P1(N(CCCl)CCCl)NCCCO1 (stereo not drawn) [CYCLOPHOSPHAMIDE ANHYDROUS] , please?
Response: 13.7

Prompt: Query (molecule): C=CCO [ALLYL ALCOHOL] ; field requested: Hb
Response: 14.2

Prompt: Sample O=C1CN(/N=C/c2ccc(-c3ccc([N+](=O)[O-])cc3)o2)C(O)=N1 [DANTROLENE] — what was its Hb?
Response: 14.8

Prompt: Which measured Hb value corresponds to O=C1NC(=O)C(c2ccccc2)(c2ccccc2)N1 [PHENYTOIN] ?
Response: 14.1

Prompt: Look up Hb for this molecule: CS(=O)(=O)Nc1ccc([N+](=O)[O-])cc1Oc1ccccc1 [NIMESULIDE]
Response: 14.7

###

Provide the recorded Mono for the entries that follow.
species: Rattus norvegicus; assay: Open TG-GATES - Regimen: Single; format: toxicity, organism-based, Sprague-Dawley; design: regimen Single, gender Male, age 6 weeks; settings: in vivo, po, 0 mg/kg, 6 h, tissue Blood, route gavage, dose level Control
Please state the figure in %; there is no need to write the unit.

Prompt: Recorded Mono for Cn1cnc([N+](=O)[O-])c1Sc1ncnc2nc[nH]c12 [AZATHIOPRINE] , please?
Response: 2.4

Prompt: Item C=CCO [ALLYL ALCOHOL] has what recorded Mono?
Response: 4.2

Prompt: I am curious: what Mono value has been reported for COc1ccc(O)c(C(C)(C)C)c1.COc1ccc(O)cc1C(C)(C)C [BUTYLATED HYDROXYANISOLE] ?
Response: 2

Prompt: Mono for Cc1cccc(Nc2cc(Cl)nc(SCC(=O)O)n2)c1C [PIRINIXIC ACID] ?
Response: 2.2

Prompt: Given CS(=O)(=O)Nc1ccc([N+](=O)[O-])cc1Oc1ccccc1 [NIMESULIDE] , state its recorded Mono.
Response: 7.8

Prompt: What does the data say about its Mono? Entry: S=C=Nc1cccc2ccccc12 [1-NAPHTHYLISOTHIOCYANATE]
Response: 3.4

Prompt: Give its Mono value. Item: O=P1(N(CCCl)CCCl)NCCCO1 (stereo unspecified) [CYCLOPHOSPHAMIDE ANHYDROUS]
Response: 2

Prompt: Please report the recorded Mono for O=C1CN(/N=C/c2ccc(-c3ccc([N+](=O)[O-])cc3)o2)C(O)=N1 [DANTROLENE] .
Response: 9.2

Prompt: Using the record for COc1ccc(Cl)cc1C(=O)NCCc1ccc(S(=O)(=O)NC(=O)NC2CCCCC2)cc1 [GLYBURIDE] , report its Mono.
Response: 3.4

Prompt: Value lookup for Mono; key = Cc1cnc(NC(=O)C2=C(O)c3ccccc3S(=O)(=O)N2C)s1 [MELOXICAM]
Response: 3.2

Prompt: Suppose we examine the molecule O=C1NC(=O)C(c2ccccc2)(c2ccccc2)N1 [PHENYTOIN] ; what Mono value has been reported?
Response: 3

###

species on record: Rattus norvegicus; experiment: Open TG-GATES - Regimen: Daily Repeat; type: toxicity, organism-based, Sprague-Dawley; parameters: regimen Daily Repeat, gender Male, age 6 weeks; conditions: in vivo, po, 0 mg/kg, […], tissue Plasma, route gavage, dose level Control, time 14 day
experimental readout: TC
Output should be the measured figure followed by the unit it is expressed in.

Prompt: Which TC reading was recorded for the molecule O=C1CN(/N=C/c2ccc(-c3ccc([N+](=O)[O-])cc3)o2)C(O)=N1 ?
Response: 62 mg/dL

Prompt: Form field: reported TC of C=CCO
Response: 68.8 mg/dL

Prompt: Param item = O=C1NC(=O)C(c2ccccc2)(c2ccccc2)N1 ; retrieve measured TC.
Response: 68.4 mg/dL

Prompt: Need TC, item COc1ccc(O)c(C(C)(C)C)c1.COc1ccc(O)cc1C(C)(C)C [BUTYLATED HYDROXYANISOLE]
Response: 72.8 mg/dL

Prompt: What value of measured TC is listed for Cc1cnc(NC(=O)C2=C(O)c3ccccc3S(=O)(=O)N2C)s1 ?
Response: 69 mg/dL

Prompt: Consider the molecule shown here: Cc1cccc(Nc2cc(Cl)nc(SCC(=O)O)n2)c1C What is its recorded TC?
Response: 69 mg/dL

Prompt: Query: TC; subject: COc1ccc(Cl)cc1C(=O)NCCc1ccc(S(=O)(=O)NC(=O)NC2CCCCC2)cc1 [GLYBURIDE]
Response: 74.6 mg/dL

Prompt: What value of measured TC is listed for O=P1(N(CCCl)CCCl)NCCCO1 (stereo not given) [CYCLOPHOSPHAMIDE ANHYDROUS] ?
Response: 67.4 mg/dL

Prompt: If you can, please state the reported TC value of CS(=O)(=O)Nc1ccc([N+](=O)[O-])cc1Oc1ccccc1 [NIMESULIDE] .
Response: 65.4 mg/dL

Prompt: Please give the measured TC for this molecule: Cn1cnc([N+](=O)[O-])c1Sc1ncnc2nc[nH]c12
Response: 63.4 mg/dL

###

Assign Ht to each entry below.
species: Rattus norvegicus; test: Open TG-GATES - Regimen: Single; assay type: toxicity, organism-based, Sprague-Dawley; parameters: regimen Single, gender Male, age 6 weeks; conditions: in vivo, po, 0 mg/kg, 6 h, tissue Blood, route gavage, dose level Control
Output spec: scalar in %, unitless text.

Prompt: I am curious: what Ht value has been reported for S=C=Nc1cccc2ccccc12 [1-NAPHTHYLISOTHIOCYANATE] ?
Response: 37.2

Prompt: What value of measured Ht is listed for C=CCO ?
Response: 38.9

Prompt: Record request: Ht value, item Cn1cnc([N+](=O)[O-])c1Sc1ncnc2nc[nH]c12
Response: 39.3

Prompt: Any idea what its Ht is? The compound is CS(=O)(=O)Nc1ccc([N+](=O)[O-])cc1Oc1ccccc1 [NIMESULIDE]
Response: 40.3

Prompt: Entry under review: O=C1NC(=O)C(c2ccccc2)(c2ccccc2)N1 . Reported Ht?
Response: 39.4

Prompt: # Ht lookup, item COc1ccc(O)c(C(C)(C)C)c1.COc1ccc(O)cc1C(C)(C)C [BUTYLATED HYDROXYANISOLE]
Response: 39

Prompt: Quick one: Ht for CNCCC(Oc1ccc(C(F)(F)F)cc1)c1ccccc1.Cl (centres undefined) [FLUOXETINE HYDROCHLORIDE] ?
Response: 41.1

Prompt: // lookup Ht for Cc1cccc(Nc2cc(Cl)nc(SCC(=O)O)n2)c1C
Response: 40.4

Prompt: Name the recorded Ht for COc1ccc(Cl)cc1C(=O)NCCc1ccc(S(=O)(=O)NC(=O)NC2CCCCC2)cc1 [GLYBURIDE] .
Response: 42.2

###

species on record: Rattus norvegicus; assay: Open TG-GATES - Regimen: Single; type: toxicity, organism-based, Sprague-Dawley; design: regimen Single, gender Male, age 6 weeks; details: in vivo, po, 0 mg/kg, 24 h, tissue Plasma, route gavage, dose level Control
Assignment: determine reported BUN for the given compounds.
Report the figure in mg/dL without appending any unit label.

Prompt: Given the entry CS(=O)(=O)Nc1ccc([N+](=O)[O-])cc1Oc1ccccc1 [NIMESULIDE] , report its measured BUN.
Response: 18.4

Prompt: Quick one: BUN of COc1ccc(Cl)cc1C(=O)NCCc1ccc(S(=O)(=O)NC(=O)NC2CCCCC2)cc1 [GLYBURIDE] ?
Response: 16.4

Prompt: What value of BUN has been reported for the following compound? Cc1cccc(Nc2cc(Cl)nc(SCC(=O)O)n2)c1C
Response: 14.8

Prompt: Field request: BUN | item: C=CCO
Response: 15.8

Prompt: Requested field: BUN. Item: S=C=Nc1cccc2ccccc12 [1-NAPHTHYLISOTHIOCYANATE]
Response: 15.2

Prompt: # query: BUN of entry O=C1NC(=O)C(c2ccccc2)(c2ccccc2)N1
Response: 14.8

Prompt: Could you share which BUN value was measured for Cn1cnc([N+](=O)[O-])c1Sc1ncnc2nc[nH]c12 ?
Response: 16.8

Prompt: // returns reported BUN for input COc1ccc(O)c(C(C)(C)C)c1.COc1ccc(O)cc1C(C)(C)C [BUTYLATED HYDROXYANISOLE]
Response: 14.6
